Hello, the source for this data is patent US10336702B2, in case you need it.

- system_tested: Akt2 (Homo sapiens)
- Construct: unspecified tag, removed (detagged) (cleaved yes); purchased SignalChem and Proteros (Akt2); Merck Millipore (PDK1) 14-452 (PDK1); none given for Akt2
- Sequence (P31751 whole entry): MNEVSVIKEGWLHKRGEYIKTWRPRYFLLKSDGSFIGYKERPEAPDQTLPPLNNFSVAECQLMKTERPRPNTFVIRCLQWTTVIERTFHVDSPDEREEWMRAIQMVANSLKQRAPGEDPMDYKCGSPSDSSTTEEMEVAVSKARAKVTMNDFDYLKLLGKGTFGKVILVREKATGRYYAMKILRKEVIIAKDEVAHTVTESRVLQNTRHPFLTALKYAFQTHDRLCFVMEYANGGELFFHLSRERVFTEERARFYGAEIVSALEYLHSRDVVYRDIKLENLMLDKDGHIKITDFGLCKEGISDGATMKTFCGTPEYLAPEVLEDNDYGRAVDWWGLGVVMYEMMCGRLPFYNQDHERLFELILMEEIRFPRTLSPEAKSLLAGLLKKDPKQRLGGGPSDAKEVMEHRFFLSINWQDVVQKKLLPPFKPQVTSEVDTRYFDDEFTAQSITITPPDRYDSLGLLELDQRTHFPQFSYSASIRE
- measurement_description: Akt activation assay (PDK1-mediated activation, LANCE Ultra crosstide TR-FRET), Akt2
- Type: biochemical
- particulars: read-out: Biological Assay 1 IC50 (nM) Akt2
measure_name: IC50 (nM)

> print(dat)
                                 mol.smiles        system.tested  unit.symbol  observed.measurement
1  CC(C)(N)c1ccc(-c2ncc(NC(=O)C[C@H]3CC[C@H](NC(=O)C4CC4)CC3)cc2-c2ccccc2)cc1  Akt2 (Homo sapiens)           nM                  2300

P: CC(C)(N)c1ccc(-c2cnc(NC(=O)C[C@H]3CC[C@H](N4CCOC4=O)CC3)cc2-c2ccccc2)cc1
Q: COC(=O)N(C)[C@H]1CC[C@H](CC(=O)Nc2cnc(-c3ccc(C4(N)CCC4)cc3)c(-c3ccccc3)c2)CC1
Between P and Q , whose recorded IC50 is greater? Write down the label attached to your selection.
P
